Target: Interstitial collagenase (Homo sapiens)
Sequence (P03956 whole entry): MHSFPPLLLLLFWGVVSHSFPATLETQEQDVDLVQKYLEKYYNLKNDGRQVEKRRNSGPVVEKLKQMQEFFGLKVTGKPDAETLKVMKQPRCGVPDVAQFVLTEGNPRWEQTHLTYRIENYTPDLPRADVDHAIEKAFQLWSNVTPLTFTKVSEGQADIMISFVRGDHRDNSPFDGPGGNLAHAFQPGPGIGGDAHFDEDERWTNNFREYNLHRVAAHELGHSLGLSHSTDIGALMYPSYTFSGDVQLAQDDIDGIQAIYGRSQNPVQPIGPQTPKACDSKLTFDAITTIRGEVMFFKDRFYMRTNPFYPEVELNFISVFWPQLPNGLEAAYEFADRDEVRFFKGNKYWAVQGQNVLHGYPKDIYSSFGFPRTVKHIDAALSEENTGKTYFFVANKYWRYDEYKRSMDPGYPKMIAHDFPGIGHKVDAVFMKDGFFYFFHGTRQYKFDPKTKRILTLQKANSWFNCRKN
Experiment: In vitro inhibitory activity against matrix metalloprotease-1
pIC50: −log10 of the molar value.
Reported metric: pIC50

[[record]]
item_smiles = "COc1ccc(-c2ccc(S(=O)(=O)N[C@H](C(=O)O)C(C)C)cc2)cc1"
reported_metric = "pIC50"
measurement = 5.06


====

biological target: Matrix metalloproteinase-9 (Homo sapiens)
Sequence (P14780 whole entry): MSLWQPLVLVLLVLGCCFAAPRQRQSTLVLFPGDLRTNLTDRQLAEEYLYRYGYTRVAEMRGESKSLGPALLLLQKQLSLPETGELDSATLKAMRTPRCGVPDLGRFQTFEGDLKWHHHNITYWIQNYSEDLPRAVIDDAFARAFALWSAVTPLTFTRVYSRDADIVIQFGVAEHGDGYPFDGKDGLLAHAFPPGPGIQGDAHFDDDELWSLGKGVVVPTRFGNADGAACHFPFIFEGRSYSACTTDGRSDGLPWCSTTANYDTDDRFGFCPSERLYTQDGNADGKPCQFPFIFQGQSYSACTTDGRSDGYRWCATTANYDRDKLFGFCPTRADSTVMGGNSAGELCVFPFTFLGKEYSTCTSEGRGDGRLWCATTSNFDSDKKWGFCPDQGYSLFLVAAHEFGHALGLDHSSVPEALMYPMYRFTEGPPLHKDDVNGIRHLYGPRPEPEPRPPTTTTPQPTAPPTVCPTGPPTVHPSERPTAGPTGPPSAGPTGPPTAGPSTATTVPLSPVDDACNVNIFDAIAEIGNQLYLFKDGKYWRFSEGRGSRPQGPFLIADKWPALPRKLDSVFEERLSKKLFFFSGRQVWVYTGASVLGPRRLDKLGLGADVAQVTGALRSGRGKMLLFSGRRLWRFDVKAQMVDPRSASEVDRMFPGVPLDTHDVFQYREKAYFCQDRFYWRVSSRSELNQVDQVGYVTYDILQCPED
Listed here are molecules together with their documented IC50.
Reported metric: IC50 (nM)

[[record]]
molecule = "COCCOC(=O)N1CCC(C(C(=O)O)N(C)S(=O)(=O)c2ccc(-c3ccc(OC)cc3)cc2)CC1 (stereo not drawn)"
study_target = "Matrix metalloproteinase-9 (Homo sapiens)"
relation = "="
measurement = 13.9

[[record]]
molecule = "COCCOC(=O)N1CCC(C(NS(=O)(=O)c2ccc(-c3ccccc3)cc2)C(=O)O)CC1 (stereo not drawn)"
study_target = "Matrix metalloproteinase-9 (Homo sapiens)"
relation = "="
measurement = 415

[[record]]
molecule = "COCCOC(=O)N1CCC(C(NS(=O)(=O)c2ccc(-c3ccc(OC)cc3)cc2)C(=O)O)CC1 (stereo in doubt; 14i)"
study_target = "Matrix metalloproteinase-9 (Homo sapiens)"
relation = "<"
measurement = 0.4

[[record]]
molecule = "COCCOC(=O)N1CCC(C(NS(=O)(=O)c2ccc(-c3ccc(SC)cc3)cc2)C(=O)O)CC1 (stereo not drawn)"
study_target = "Matrix metalloproteinase-9 (Homo sapiens)"
relation = "="
measurement = 7.3

[[record]]
molecule = "COc1ccc(-c2ccc(S(=O)(=O)NC(CC#Cc3ccccc3)C(=O)O)cc2)cc1 (stereo not drawn)"
study_target = "Matrix metalloproteinase-9 (Homo sapiens)"
relation = "="
measurement = 553

[[record]]
molecule = "COCCOC(=O)N1CCC(C(NS(=O)(=O)c2ccc(-c3ccc(OC)cc3)cc2)C(=O)O)CC1 (stereo in doubt; 13g)"
study_target = "Matrix metalloproteinase-9 (Homo sapiens)"
relation = "="
measurement = 55

[[record]]
molecule = "COc1ccc(-c2ccc(S(=O)(=O)NC(C(=O)O)C3CCNCC3)cc2)cc1 (stereo not drawn)"
study_target = "Matrix metalloproteinase-9 (Homo sapiens)"
relation = "="
measurement = 1760

[[record]]
molecule = "COc1ccc(-c2ccc(S(=O)(=O)N[C@H](C(=O)O)C(C)C)cc2)cc1"
study_target = "Matrix metalloproteinase-9 (Homo sapiens)"
relation = "="
measurement = 747


====

pIC50: −log10 of the molar value.
System: Collagenase 3 (Homo sapiens) | Read-out: pIC50
Reported metric: pIC50

[[record]]
molecule = "COc1ccc(-c2ccc(S(=O)(=O)NC(C(=O)O)C3CCNCC3)cc2)cc1 (stereo not drawn)"
reported_metric = "pIC50"
measurement = 6.58

[[record]]
molecule = "COCCOC(=O)N1CCC(C(NS(=O)(=O)c2ccc(-c3ccc(OC)cc3)cc2)C(=O)O)CC1 (stereo in doubt; 14i)"
reported_metric = "pIC50"
measurement = 9.40

[[record]]
molecule = "COCCOC(=O)N1CCC(C(NS(=O)(=O)c2ccc(-c3ccc(OC)cc3)cc2)C(=O)O)CC1 (stereo in doubt; 13g)"
reported_metric = "pIC50"
measurement = 8.46

[[record]]
molecule = "COc1ccc(-c2ccc(S(=O)(=O)NC(C(=O)O)C3CCN(C(=O)OC(C)C)CC3)cc2)cc1 (stereo not drawn)"
reported_metric = "pIC50"
measurement = 9.00

[[record]]
molecule = "CCCCOc1ccc(S(=O)(=O)NC(C(=O)O)C2CCN(C(=O)OCCOC)CC2)cc1 (stereo not drawn)"
reported_metric = "pIC50"
measurement = 6.10

[[record]]
molecule = "COCCOC(=O)N1CCC(C(NS(=O)(=O)c2ccc(-c3ccccc3)cc2)C(=O)O)CC1 (stereo not drawn)"
reported_metric = "pIC50"
measurement = 7.26

[[record]]
molecule = "COCCOC(=O)N1CCC(C(NS(=O)(=O)c2ccc(Oc3ccccc3)cc2)C(=O)O)CC1 (stereo not drawn)"
reported_metric = "pIC50"
measurement = 6.85

[[record]]
molecule = "COCCOC(=O)N1CCC(C(NS(=O)(=O)c2ccc(-c3ccc(SC)cc3)cc2)C(=O)O)CC1 (stereo not drawn)"
reported_metric = "pIC50"
measurement = 9.00


====

System: Matrix metalloproteinase-9 (Homo sapiens) | Read-out: IC50
Reported metric: IC50 (nM)

[[record]]
molecule = "CCCCOc1ccc(S(=O)(=O)NC(C(=O)O)C2CCN(C(=O)OCCOC)CC2)cc1 (stereo unspecified)"
study_target = "Matrix metalloproteinase-9 (Homo sapiens)"
measurement = 2990

[[record]]
molecule = "COc1ccc(-c2ccc(S(=O)(=O)NC(C(=O)O)C3CCN(C(=O)N4CCOCC4)CC3)cc2)cc1 (stereo unspecified)"
study_target = "Matrix metalloproteinase-9 (Homo sapiens)"
measurement = 50.8

[[record]]
molecule = "COc1ccc(-c2ccc(S(=O)(=O)NC(C(=O)O)C3CCN(C(=O)OC(C)C)CC3)cc2)cc1 (stereo unspecified)"
study_target = "Matrix metalloproteinase-9 (Homo sapiens)"
measurement = 11.7

[[record]]
molecule = "COCCOC(=O)N1CCC(C(NS(=O)(=O)c2ccc(Oc3ccccc3)cc2)C(=O)O)CC1 (stereo unspecified)"
study_target = "Matrix metalloproteinase-9 (Homo sapiens)"
measurement = 597

[[record]]
molecule = "COCCOC(=O)N1CCC(C(C(=O)O)N(CCOC)S(=O)(=O)c2ccc(-c3ccc(OC)cc3)cc2)CC1 (stereo unspecified)"
study_target = "Matrix metalloproteinase-9 (Homo sapiens)"
measurement = 9.1

[[record]]
molecule = "COCCOC(=O)N1CCC(C(C(=O)O)N(Cc2ccccn2)S(=O)(=O)c2ccc(-c3ccc(OC)cc3)cc2)CC1 (stereo unspecified)"
study_target = "Matrix metalloproteinase-9 (Homo sapiens)"
measurement = 18.7


====

biological target: Neutrophil collagenase (Homo sapiens); assay: Inhibitory activity against matrix metalloprotease-8
Sequence (P22894 whole entry): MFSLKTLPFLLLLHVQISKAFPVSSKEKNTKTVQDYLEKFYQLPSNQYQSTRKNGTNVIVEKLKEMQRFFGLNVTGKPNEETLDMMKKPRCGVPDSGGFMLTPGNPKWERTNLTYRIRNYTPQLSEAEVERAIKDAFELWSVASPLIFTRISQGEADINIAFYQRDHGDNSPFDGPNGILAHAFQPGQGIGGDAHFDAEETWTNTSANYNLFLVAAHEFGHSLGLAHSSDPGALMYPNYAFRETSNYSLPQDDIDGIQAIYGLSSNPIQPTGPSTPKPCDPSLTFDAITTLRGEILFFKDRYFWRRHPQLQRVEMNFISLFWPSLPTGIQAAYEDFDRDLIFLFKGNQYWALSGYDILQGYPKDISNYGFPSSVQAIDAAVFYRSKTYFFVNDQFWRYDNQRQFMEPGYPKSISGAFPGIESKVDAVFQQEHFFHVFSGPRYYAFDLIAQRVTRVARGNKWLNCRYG
Response field label: string, one of Met (IC50 strictly below 9 nM) or Not met.

[[record]]
compound = "COCCOC(=O)N1CCC(C(C(=O)O)N(CCOC)S(=O)(=O)c2ccc(-c3ccc(OC)cc3)cc2)CC1 (stereo not drawn)"
class = "Met"

[[record]]
compound = "COc1ccc(-c2ccc(S(=O)(=O)NC(C(=O)O)C3CCN(C(=O)OC(C)C)CC3)cc2)cc1 (stereo not drawn)"
class = "Met"

[[record]]
compound = "COCCOC(=O)N1CCC(C(NS(=O)(=O)c2ccc(Oc3ccccc3)cc2)C(=O)O)CC1 (stereo not drawn)"
class = "Not met"

[[record]]
compound = "COCCOC(=O)N1CCC(C(NS(=O)(=O)c2ccc(-c3ccc(OC)cc3)cc2)C(=O)O)CC1 (stereo in doubt; 14i)"
class = "Met"

[[record]]
compound = "COCCOC(=O)N1CCC(C(NS(=O)(=O)c2ccc(-c3ccc(OC)cc3)cc2)C(=O)O)CC1 (stereo in doubt; 13g)"
class = "Met"

[[record]]
compound = "COCCOC(=O)N1CCC(C(C(=O)O)N(Cc2ccccn2)S(=O)(=O)c2ccc(-c3ccc(OC)cc3)cc2)CC1 (stereo not drawn)"
class = "Met"

[[record]]
compound = "COc1ccc(-c2ccc(S(=O)(=O)N[C@H](C(=O)O)C(C)C)cc2)cc1"
class = "Not met"

[[record]]
compound = "COc1ccc(-c2ccc(S(=O)(=O)NC(CC#Cc3ccccc3)C(=O)O)cc2)cc1 (stereo not drawn)"
class = "Not met"


====

Target: UniProtKB P03956
Sequence (P03956 whole entry): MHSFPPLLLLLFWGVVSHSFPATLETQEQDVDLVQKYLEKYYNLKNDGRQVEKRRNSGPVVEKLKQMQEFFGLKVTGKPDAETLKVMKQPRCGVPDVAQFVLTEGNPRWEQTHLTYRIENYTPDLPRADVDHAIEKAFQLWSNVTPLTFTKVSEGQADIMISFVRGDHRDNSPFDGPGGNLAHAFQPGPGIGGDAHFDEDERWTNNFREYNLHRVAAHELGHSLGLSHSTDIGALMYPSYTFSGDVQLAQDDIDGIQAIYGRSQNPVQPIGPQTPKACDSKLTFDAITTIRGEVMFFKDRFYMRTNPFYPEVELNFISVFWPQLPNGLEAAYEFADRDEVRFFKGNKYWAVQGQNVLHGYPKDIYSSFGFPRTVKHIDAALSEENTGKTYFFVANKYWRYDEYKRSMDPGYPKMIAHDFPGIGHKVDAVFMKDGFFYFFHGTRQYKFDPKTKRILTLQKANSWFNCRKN
Experiment: In vitro inhibitory activity against matrix metalloprotease-1
pIC50: −log10 of the molar value.
Listed here are compounds together with their documented pIC50.
Reported metric: pIC50

[[record]]
compound = "COCCOC(=O)N1CCC(C(NS(=O)(=O)c2ccc(-c3ccc(SC)cc3)cc2)C(=O)O)CC1 (stereo not drawn)"
relation = "="
measurement = 5.97

[[record]]
compound = "COCCOC(=O)N1CCC(C(C(=O)O)N(Cc2ccccn2)S(=O)(=O)c2ccc(-c3ccc(OC)cc3)cc2)CC1 (stereo not drawn)"
relation = "="
measurement = 5.48

[[record]]
compound = "COCCOC(=O)N1CCC(C(NS(=O)(=O)c2ccc(Oc3ccccc3)cc2)C(=O)O)CC1 (stereo not drawn)"
relation = "<"
measurement = 5.00

[[record]]
compound = "COc1ccc(-c2ccc(S(=O)(=O)N[C@H](C(=O)O)C3CCN(C(=O)OC(C)(C)C)CC3)cc2)cc1"
relation = "="
measurement = 5.46

[[record]]
compound = "COc1ccc(-c2ccc(S(=O)(=O)NC(C(=O)O)C3CCN(C(=O)OC(C)(C)C)CC3)cc2)cc1 (stereo not drawn)"
relation = "="
measurement = 5.85

[[record]]
compound = "COc1ccc(-c2ccc(S(=O)(=O)NC(C(=O)O)C3CCN(C(=O)OC(C)C)CC3)cc2)cc1 (stereo not drawn)"
relation = "="
measurement = 5.85

[[record]]
compound = "COc1ccc(-c2ccc(S(=O)(=O)NC(C(=O)O)C3CCNCC3)cc2)cc1 (stereo not drawn)"
relation = "="
measurement = 5.41

[[record]]
compound = "COc1ccc(-c2ccc(S(=O)(=O)NC(C(=O)O)C3CCN(C(=O)CC(C)C)CC3)cc2)cc1 (stereo not drawn)"
relation = "="
measurement = 5.31

